System: RD
Assay: relative viability vs DMSO control (72 h) (fraction); higher = more viable cells
Settings: 0.00457 µM
The reader will find reported relative viability values listed item by item below.
measured attribute: relative viability

{"compound": "Cc1nc(Nc2ncc(C(=O)Nc3c(C)cccc3Cl)s2)cc(N2CCN(CCO)CC2)n1 [Dasatinib]", "readout value": 1.02}
{"compound": "NC(=O)c1cnc2[nH]ccc2c1N[C@@H]1[C@@H]2CC3C[C@H]1C[C@@](O)(C3)C2 [Peficitinib]", "readout value": 1.04}
{"compound": "Cc1cn(-c2cc(NC(=O)c3ccc(C)c(Nc4nccc(-c5cnccn5)n4)c3)cc(C(F)(F)F)c2)cn1 [Radotinib]", "readout value": 1.12}
{"compound": "CO[C@@H]1[C@H](N(C)C(=O)c2ccccc2)C[C@H]2O[C@]1(C)n1c3ccccc3c3c4c(c5c6ccccc6n2c5c31)C(=O)NC4 [Midostaurin]", "readout value": 1.09}

* * *

Test system: KHOS-NP
Experiment: relative viability vs DMSO control (72 h) (fraction); higher = more viable cells
Conditions: 0.00017 µM
The reader will find reported relative viability values listed item by item below.
measured attribute: relative viability

{"smiles notation": "Cc1ccc(NC(=O)c2ccc(CN3CCN(C)CC3)cc2)cc1Nc1nccc(-c2cccnc2)n1", "readout value": 1.01}
{"smiles notation": "COc1cc(OC)cc(N(CCNC(C)C)c2ccc3ncc(-c4cnn(C)c4)nc3c2)c1", "readout value": 1.07}
{"smiles notation": "Cc1nc(Nc2ncc(C(=O)Nc3c(C)cccc3Cl)s2)cc(N2CCN(CCO)CC2)n1", "readout value": 1.02}
{"smiles notation": "C=CC(=O)Nc1cccc(Nc2nc(Nc3ccc(N4CCN(C(C)=O)CC4)cc3OC)ncc2C(F)(F)F)c1", "readout value": 1.09}
{"smiles notation": "CO[C@@H]1[C@H](N(C)C(=O)c2ccccc2)C[C@H]2O[C@]1(C)n1c3ccccc3c3c4c(c5c6ccccc6n2c5c31)C(=O)NC4", "readout value": 1.04}
{"smiles notation": "Cc1cccc(-c2[nH]c(CNc3ccccc3F)nc2-c2ccc3ncnn3c2)n1", "readout value": 1.05}
{"smiles notation": "Cc1c(F)cc(C(=O)NC2CC2)cc1-c1ccc(C(=O)NCC(C)(C)C)cn1", "readout value": 1.08}
{"smiles notation": "FC(F)(F)c1ccc(CNc2ccc(Cc3c[nH]c4ncc(Cl)cc34)cn2)cn1", "readout value": 1.11}

* * *

System: KHOS-NP
Assay: relative viability vs DMSO control (72 h) (fraction); higher = more viable cells
Conditions: 0.1235 µM

{"molecule": "Cc1ccc(NC(=O)c2ccc(CN3CCN(C)CC3)cc2)cc1Nc1nccc(-c2cccnc2)n1 [Imatinib]", "relative viability": 1.03}
{"molecule": "CCCS(=O)(=O)N[C@H]1C[C@@H](N(C)c2ncnc3[nH]ccc23)C1 [Abrocitinib]", "relative viability": 1.06}
{"molecule": "C[C@H]1Oc2cc(cnc2N)-c2c(nn(C)c2C#N)CN(C)C(=O)c2ccc(F)cc21 [Lorlatinib]", "relative viability": 1.02}
{"molecule": "C[C@@H](Oc1cc(-c2cnn(C3CCNCC3)c2)cnc1N)c1c(Cl)ccc(F)c1Cl [Crizotinib]", "relative viability": 1.1}
{"molecule": "C=CC(=O)Nc1cc(Nc2nccc(-c3cn(C)c4ccccc34)n2)c(OC)cc1N(C)CCN(C)C [Osimertinib]", "relative viability": 1.06}
{"molecule": "CN(C)C[C@@H]1CCn2cc(c3ccccc32)C2=C(C(=O)NC2=O)c2cn(c3ccccc23)CCO1 [Ruboxistaurin]", "relative viability": 1.07}
{"molecule": "CCN(c1cc(-c2ccc(CN3CCOCC3)cc2)cc(C(=O)NCc2c(C)cc(C)[nH]c2=O)c1C)C1CCOCC1 [Tazemetostat]", "relative viability": 1.01}
{"molecule": "COc1cc(OC)cc(N(CCNC(C)C)c2ccc3ncc(-c4cnn(C)c4)nc3c2)c1 [Erdafitinib]", "relative viability": 1.02}
